# System: Plasmodium falciparum
# Test description: In vitro antimalarial assay (Plasmodium falciparum)
# Assay type: cell-based
# Condition description: Plasmodium falciparum; printed as In vivo; read-out: In vitro antimalarial assay: IC50
# Protocol: The protozoan Plasmodium falciparum is a causative agent of malaria, the single most critical infectious disease of mankind. The in vitro antimalarial activity of the C3 -substituted trioxanes was determined according to the method described in Posner et al. (13). The in vivo antimalarial activity was determined as described in Peters et al. (14). Tables 1 and 2 present a tabulation of a number of compounds which have been synthesized along with the IC50 (in nM).
Measured endpoint: IC50 (nM)
Number in nM, nothing else.

### Prompt Quick check: IC50 of `CCOC(=O)Cn1cccc1[C@@H]1O[C@@H]2O[C@@]3(C)CC[C@H]4[C@H](C)CC[C@@H]([C@H]1C)[C@@]24OO3` ?
### Response 9.1
